Please provide measured melting point for the entries that follow.

Answered examples (6):
molecule=CN(C)CCn1ccc2cc(NS(=O)(=O)c3ccccc3)ccc21 result="139 to 141 °C"
molecule="O=S(=O)(CCc1cccc2ccccc12)Nc1ccc2c(ccn2CCCN2CCCCC2)c1 [Example 48e]" result="59 to 61 °C"
molecule="O=S(=O)(Nc1ccc2c(ccn2CCCN2CCCCC2)c1)c1cccc2c(Cl)cccc12 [Example 52e]" result="92 to 96 °C"
molecule="O=S(=O)(Nc1ccc2c(ccn2CCCN2CCCCC2)c1)c1ccc(Oc2ccccc2)cc1 [Example 49e]" result="64 to 66 °C"
molecule="Cc1ccc2c(c1)COC(=O)N2C1CCN(CC(=O)Nc2ccc3c(c2)-c2ccccc2C3=O)CC1.Cl [Example 20a]" result="250 to 252 °C"
molecule=CN(C)CCn1ccc2c(NS(=O)(=O)c3ccc(-c4ccccc4)cc3)cccc21 result="137 to 140 °C"

Hi! Can you tell me melting point for each of these molecules?
1. Cc1c(S(=O)(=O)Nc2ccc3[nH]cc(CN4CCN(C)CC4)c3c2)sc2ccc(Cl)cc12 [Example 19c]
2. Cc1cccc2c1N(C1CCN(CC(=O)Nc3ccc4c(c3)-c3ccccc3C4O)CC1)C(=O)OC2.Cl (centres unmarked)

Result:
["230 °C (dec.)", "207 to 212 °C"]

----------
measurement_type: melting point

compound=CN(C)CCc1c[nH]c2ccc(NS(=O)(=O)c3cccc4ccccc34)cc12 result="203 to 205 °C"
compound=Cl.O=C(CN1CCC(N2C(=O)OCc3cc(Cl)ccc32)CC1)Nc1ccc(Cl)cc1 result="279 to 282 °C"
compound=Cl.O=C(CCN1CCC(N2C(=O)OCc3ccccc32)CC1)Nc1ccc2c(c1)-c1ccccc1C2=O result="240 to 242 °C"
compound=Cc1cccc2c1N(C1CCN(CC(=O)Nc3ccc(Cl)cc3)CC1)C(=O)OC2.Cl result="245 to 253 °C"
compound=CCN(CC)CCc1c[nH]c2ccc(NS(=O)(=O)c3cccc4c(Cl)cccc34)cc12 result="154 to 156 °C"
compound=Cl.O=C(CN1CCC(N2C(=O)OCc3cc(Cl)ccc32)CC1)Nc1ccc2c(c1)-c1ccccc1C2=O result="245 to 249 °C"

Okay, here is my list. What is melting point for each of these?
1. CCN(CC)CCc1c[nH]c2ccc(NS(=O)(=O)c3ccc(-c4ccccc4)cc3)cc12
2. CCCN(CCC)CCc1c[nH]c2ccc(NS(=O)(=O)c3cccc4ccccc34)cc12
3. CCN(CC)CCc1c[nH]c2ccc(NS(=O)(=O)c3sc4ccc(Cl)cc4c3C)cc12 [24e]

Result:
1. 161 to 163 °C
2. 76 to 80 °C
3. 53 to 56 °C

----------
measurement_type: melting point

The cases that follow already have their melting point on record.
molecule="CN1CCC(c2c[nH]c3ccc(NS(=O)(=O)c4cccc5ccccc45)cc23)CC1.Cl [Example 13c]" result="212 °C (dec.)"
molecule=Cl.O=C(CN1CCC(N2C(=O)OCc3ccccc32)CC1)Nc1ccc2c(c1)CCC2 result="230 to 231 °C"
molecule=O=S(=O)(Nc1ccc2[nH]cc(CCN3CCCC3)c2c1)c1ccc2ccccc2c1 result="180 to 182 °C"
molecule=Cc1ccc2c(c1)COC(=O)N2C1CCN(CC(=O)Nc2ccc(Oc3ccccc3)cc2)CC1.Cl result="234 to 237 °C"
molecule=O=C(CN1CCC(N2C(=O)OCc3cc(F)ccc32)CC1)Nc1ccc2c(c1)-c1ccccc1C2=O result="237 °C"
molecule=Cl.O=C(CN1CCC(N2C(=O)OCc3cc(Cl)ccc32)CC1)Nc1ccc(C(F)(F)F)cc1 result="284 to 285 °C"
molecule=CCN(CC)CCc1c[nH]c2ccc(NS(=O)(=O)c3cccc4ccccc34)cc12 result="170 °C"
molecule=CCN(CC)CCc1c[nH]c2ccc(NS(=O)(=O)/C=C/c3ccccc3)cc12 result="125 to 130 °C"
molecule=Cc1ccc2c(c1)COC(=O)N2C1CCN(CC(=O)Nc2ccc3c(c2)-c2ccccc2C3=O)CC1 result="237 to 239 °C"
molecule=CN(C)CCn1ccc2c(NS(=O)(=O)c3cc(Cl)cc(Cl)c3)cccc21 result="113 to 118 °C"

For each of the molecules below, note its melting point.
1. CCN(CC)CCc1c[nH]c2ccc(NS(=O)(=O)c3cc(Cl)cc(Cl)c3)cc12
2. CN(C)CCn1ccc2cc(NS(=O)(=O)Cc3ccccc3)ccc21 [Example 15e]

Result:
1: 168 to 170 °C; 2: 163 to 166 °C

Answer for every listed entry: what is its melting point? The entries follow.
1. Cl.O=C(CN1CCC(N2C(=O)OCc3ccccc32)CC1)Nc1ccc2c(c1)CCC2=O
2. CN(C)CCn1ccc2cc(NS(=O)(=O)c3cc(Cl)cc(Cl)c3)ccc21 [Example 12e]
3. CN(C)CCc1c[nH]c2ccc(NS(=O)(=O)c3cccc4c(Cl)cccc34)cc12
4. Cc1c(S(=O)(=O)Nc2ccc3[nH]cc(CCN4CCOCC4)c3c2)sc2ccc(Cl)cc12
5. Cl.O=C(CN1CCC(N2C(=O)OCc3cc(Cl)ccc32)CC1)Nc1ccc2c(c1)C(O)c1ccccc1-2 (stereo not drawn)
6. CCCCN(CCCC)CCc1c[nH]c2ccc(NS(=O)(=O)c3sc4ccc(Cl)cc4c3C)cc12

Result:
1. 272 to 277 °C
2. 124 to 126 °C
3. 201 to 203 °C
4. 200 to 201 °C
5. 286 to 289 °C
6. 79 to 80 °C
